- Test system: HL-60
- Method description: NCI tumour cell line growth inhibition, 48 h
Activity calls are given as the source filed them. Cut-off read from the data, not from the text of the source: active = GI50 up to about 1.1 µM and inactive = higher.
Readout type: GI50

FC(F)(F)c1cccc(/C=N/C23CC4CC(CC(C4)C2)C3)c1: > 100 µM (inactive)
O=C1C=CC(=O)c2c1ccc1c3ccccc3n(-c3ccccc3[N+](=O)[O-])c21: 1.06 µM (active)
CCOC(=O)c1ccc(NC(=O)Oc2ccc3c(C)cc(=O)oc3c2)cc1: 30.4 µM (inactive)
NCCCNCCCNCCCN: > 100 µM (inactive)
C[C@@H]1[C@@H]2[C@@H](C=C3C4CCC5Cc6nc7c(nc6C[C@@]5(C)C4C[C@H](O)[C@]32CO)CC2CCC3C4=C[C@H]5O[C@@]6(OC(C)(CO)C[C@@H]6O)[C@H](C)[C@@]5(O)[C@]4(C)[C@@H](O)CC3[C@]2(C)C7)O[C@]12CCC(C)(C)O2 (stereo partly drawn): 0.00692 µM (active)
COc1ccc(C[C@@H](C(=O)O[C@H](C)[C@H](NC(=O)[C@@H](CC(C)C)N(C)C(=O)C2CCCN2C(=O)[C@H](C)O)C(=O)N2CCCCNC(=O)[C@@H](C)C(=O)[C@H](C(C)C)OC(=O)C[C@H](O)[C@H]2CC(C)C)N(C)C(C)=O)cc1 (stereo partly drawn): 10.9 µM (inactive)
Cc1ccc2cc3cccc(C(=O)NCCN(C)C)c3nc2c1: 0.565 µM (active)
CC(C)NC(=O)CN1CCN(C2=C(Cl)C(=O)c3c(O)ccc(O)c3C2=O)CC1: 0.187 µM (active)

###

- System: A549
- Method description: NCI tumour cell line growth inhibition, 48 h
Calls of active or inactive are those of the source. Rule as the data show it: active = GI50 up to about 1.1 µM and inactive = higher.
Reported GI50 values for a set of molecules
Readout type: GI50

COC(=O)C(=O)C(C(=O)C=C(C)C)C(=O)C(=O)Nc1nc2ccc([N+](=O)[O-])cc2s1 (stereo not given): 78.7 µM (inactive)
C[N+](C)=C/C=C(\Cl)c1ccc2ccccc2c1: > 75.7 µM (inactive)
Cc1ccc2nc3ccccc3c(C3C4C(=O)N(c5ccc(Br)cc5Cl)C(=O)C4ON3C(C(N)=O)c3ccccc3)c2c1 (stereo not given): > 25 µM (inactive)
C=C=C(C(=O)OC)[S+]([O-])c1ccc([N+](=O)[O-])cc1[N+](=O)[O-] (stereo not given): 52.7 µM (inactive)
C1CC2=C(C1)[Se]C(=C1Sc3nsnc3S1)[Se]2: > 100 µM (inactive)
COC(=O)C1=CC(=O)OC1(OO)c1ccc(Br)cc1 (stereo not given): > 100 µM (inactive)
COc1cc2c(cc1OC)[C@H]1C(=O)c3cc4c(cc3[C@H]1N(C)C2=O)OCO4: 21.8 µM (inactive)
Cc1ccc(S(=O)(=O)c2c(N)n(CCN(C)C)c3nc4ccccc4nc23)cc1: > 100 µM (inactive)
c1cnn(CN(Cn2cccn2)Cn2cccn2)c1: > 100 µM (inactive)
NC1=C(NC(=O)Cc2ccccc2F)C(=O)c2ccccc2C1=O: 59.3 µM (inactive)

###

- System: OVCAR-8
- Method description: NCI tumour cell line growth inhibition, 48 h
The source made the active and inactive calls. Cut-off read from the data, not from the text of the source: active = GI50 up to about 1.1 µM and inactive = higher.
Outcomes: Yes (active), No (inactive)

O=C(N/N=C/c1ccccc1O)c1ccccc1Nc1ccccc1C(=O)N/N=C/c1ccccc1O: Yes
Cn1c(NC(=O)NC23CC4CC(CC(C4)C2)C3)nc2ccccc21: No
OCC(O)C(OC1OC(CO)C(O)C(O)C1O)c1nn(-c2ccccc2)c2nc3cc(Cl)ccc3nc12 (stereo not given): No
COC(=N)C1(C#N)NC(c2ccsc2)C(C#N)(C#N)NC1c1ccsc1 (stereo not given): No
O=[N+]([O-])c1ccccc1S(=O)(=O)c1cccc2c1NCCC2: No
N=C(N)NS(=O)(=O)c1ccc(N/N=C2/CCOC2=O)cc1: No
CCOC(=O)NC(C(=O)OCC)C(F)(F)F (stereo not given): No
Cc1ccc2c(c1)-c1c(C#N)c(N)nc(-c3ccccc3)c1CCS2(=O)=O: No
COc1cc(Br)c(/C=N/N=C(\N)NO)cc1OC: No
CN1CCC23c4c5ccc(O)c4OC2C(=NN=C2CCC4(O)C6Cc7ccc(O)c8c7C4(CCN6C)C2O8)CCC3(O)C1C5 (stereo not given): No
C=CCC(O[Si](C)(C)C(C)(C)C)c1cc(O[Si](C)(C)C(C)(C)C)ccc1OC (stereo not given): No
C[N+](C)=C/C=C(\Cl)c1ccc2ccccc2c1: No
CC1OC(O[C@H]2CC[C@]3(C=O)[C@H]4CC[C@]5(C)[C@H](C6=CC(=O)OC6)CC[C@]5(O)[C@@H]4C=C[C@]3(O)C2)CC(O)C1O (stereo not given in full): Yes
O=C1OC(c2ccccc2)=N/C1=C\c1ccc(Oc2ccc(Cl)c(Cl)c2)cc1: No
CN1CCN(c2cc(-c3cc4ccccc4o3)oc(=O)c2C#N)CC1: No
OCCCNc1ccnc2cc(Cl)ccc12: No
CC1(CO)OC(n2cc(C(=O)NC(=O)OCc3ccccc3)c(=O)[nH]c2=O)CC1O (stereo not given): No
O=[N+]([O-])c1cccc(-c2csc(N/N=C3\NC/C(=C/c4ccc5c(c4)OCO5)S3)n2)c1: No
COc1ccc(NCc2cc(OC)c(OC)c(OC)c2)cc1: Yes
CC1(C)O[C@@H]([C@@H](O)[C@H](O)C2SCCCS2)[C@@H](CO)O1: No
